- System: SNB-19
- Method Notes: NCI tumour cell line growth inhibition, 48 h
Calls of active or inactive are those of the source. Rule as the data show it: active = GI50 up to about 1.1 µM and inactive = higher.
Result category, one only: yes for active, no for inactive

Solved entries (count: 3):
Molecule | System Tested | Discrete Label
COc1cc(C2SC(=N)Nc3c2c(C)nn3C(=O)Cc2ccccc2)cc(OC)c1OC (stereo not given) | SNB-19 | no
CC[C@@]1(O)C(=O)OCc2c1cc1n(c2=O)Cc2c-1nc1ccc(O)cc1c2CC[Si](C)(C)C | SNB-19 | yes
CC(C)N(C(=O)C12C3(C(=O)C(C)(C)C)C4C5(C#N)C3C1(C(=O)C(C)(C)C)C5C42C(=O)C(C)(C)C)C(C)C (stereo not given) | SNB-19 | no

Exercise: Kindly provide the recorded test outcome for the following molecule: Cc1ccc2nc(N/N=C/c3sccc3C)cc(C)c2c1
Key: no

Exercise: Kindly provide the recorded test outcome for the following molecule: COC(=O)C(Cc1ccccc1)NC(=O)CCCNC(=O)OCc1ccccc1 (stereo not given)
Key: no

###

- System: IGROV-1
- Method Notes: NCI tumour cell line growth inhibition, 48 h
Active and inactive are the calls of the source. No stated cut-off is given here; in the data, active = GI50 up to about 1.1 µM and inactive = higher.
Listed below: GI50 values for each entry.

Solved cases below.
Molecule | GI50
COC(=O)/C=C(C)/C=C/c1cc(C(C)=O)c(C)o1 | > 100 µM (inactive)
CSc1ccc(/C=C2\N=C(c3ccccc3)N(c3nc4c(Cl)cc(Cl)cc4s3)C2=O)cc1 | 35.3 µM (inactive)
C/C(=N\Nc1cc(CN2CCCC2)c(-c2ccc(Cl)cc2)nn1)C(=O)O | > 100 µM (inactive)
CCN(CC)CCN1c2ccccc2Sc2ccc3ccccc3c21 | 10.2 µM (inactive)
O=C1CC(CC(=O)c2ccc(Br)cc2)C(O)=C1C(=O)c1ccc(Br)cc1 (configuration not stated) | > 100 µM (inactive)
COC(=O)C1(Cc2ccc3c(c2)CCC3)Cc2ccc3c(c2C1)CCC3 (configuration not stated) | 21.1 µM (inactive)
COc1cc2c(cc1C)NC(=O)/C2=C\c1ccncc1 | 2.43 µM (inactive)
O=C(O)c1nccnc1C(=O)O | > 100 µM (inactive)
COc1ccc(NC(=S)c2ccc([N+](=O)[O-])o2)cc1 | 1.82 µM (inactive)
O=S1(=O)CSc2ccc3ccccc3c2-c2c1ccc1ccccc21 | > 100 µM (inactive)

Please turn your attention to the following entry.
The value of GI50 measured for the molecule CCOC(=O)C1(C(=O)OCC)CC(=O)[C@@]2(C1)OCC[C@H]1OC(=O)C[C@H]12 turned out to be > 100 µM (inactive)

###

Listed below: GI50 values for each entry.
- System: M14
- Method Notes: NCI tumour cell line growth inhibition, 48 h
Activity calls are given as the source filed them. Cut-off read from the data, not from the text of the source: active = GI50 up to about 1.1 µM and inactive = higher.

Solved cases below.
Compound | GI50
Cc1cc2nc3c(C(O)CO)nn(-c4ccccc4)c3nc2cc1C (stereo not given) | 31.3 µM (inactive)
O=C(O)/C(=C/C=C/c1ccccc1)c1csc(-c2nc(/C(=C\C=C\c3ccccc3)C(=O)O)cs2)n1 | 22.9 µM (inactive)
O=c1cc(N2CCCC2)[nH]c(=O)n1-c1ccc(Cl)cc1 | > 100 µM (inactive)
CC1=CC(O)CC(C)(C)C1/C=C/C(C)=C/C=C/C(C)=C/C=C/C=C(C)/C=C/C=C(C)/C=C/C1=C(C)CC(O)CC1(C)C (stereo not given) | 13.8 µM (inactive)

Please turn your attention to the following entry.
The value of GI50 measured for the compound Oc1ccc(-c2nc(-c3cccnc3)c(-c3ccc(F)cc3)[nH]2)cc1 turned out to be 17.7 µM (inactive)

###

- System: MDA-MB-435
- Method Notes: NCI tumour cell line growth inhibition, 48 h
Active and inactive are the calls of the source. Rule as the data show it: active = GI50 up to about 1.1 µM and inactive = higher.
Test Readout: GI50

Solved cases below.
Compound | GI50
O=C(Nc1ccc2[nH]c(C(=O)N3CC(CCl)c4c3cc([N+](=O)[O-])c3ccccc43)cc2c1)Nc1ccc2[nH]c(C(=O)N3CC(CCl)c4c3cc([N+](=O)[O-])c3ccccc43)cc2c1 (stereo unspecified) | > 100 µM (inactive)
Cc1ccc(S(=O)(=O)N/N=C2\C3CC4CC(C3)C2C4)cc1 (stereo unspecified) | > 100 µM (inactive)

The value of GI50 measured for the compound O=[N+]([O-])C1=Cc2c(O)ccc(O)c2C2OC=CC12 (stereo unspecified) turned out to be 2.4 µM (inactive)

The value of GI50 measured for the compound O=c1[nH]nc(Nc2ccc(Cl)cc2)c2nnn(-c3ccc([N+](=O)[O-])cc3)c12 turned out to be 30.1 µM (inactive)

The value of GI50 measured for the compound O=C(O)CCC1C(=O)C2CCN1CC2 (stereo unspecified) turned out to be > 100 µM (inactive)

The value of GI50 measured for the compound COc1ccc(/N=N/C(=N/NC(=O)c2ccccc2)c2ccc(N(CCC#N)CCC#N)cc2C)cc1 turned out to be 5.43 µM (inactive)

###

- System: IGROV-1
- Method Notes: NCI tumour cell line growth inhibition, 48 h
Active and inactive are the calls of the source. Rule as the data show it: active = GI50 up to about 1.1 µM and inactive = higher.
Listed below: GI50 values for each entry.

Solved cases below.
Molecule | Test Readout | Result
Cc1nc(N(CCO)CCO)c2sc(=S)n(-c3ccccc3)c2n1 | GI50 | > 100 µM (inactive)
CC(=O)OC1C(=O)C(O)C(C)OC1O[C@@H]1C[C@@]2(C)[C@@H]3CC=C4[C@@H](C[C@H](O)C(=O)C4(C)C)[C@]3(C)C(=O)C[C@]2(C)[C@H]1[C@@](C)(O)C(=O)/C=C/C(C)(C)O (stereo partly drawn) | GI50 | 2.6 µM (inactive)
O=C1CC2(CCC(O)(c3ccc4ccccc4c3)C(C(=O)c3ccc4ccccc4c3)C2)C(=O)c2ccccc2N1 (stereo not drawn) | GI50 | > 100 µM (inactive)

The value of GI50 measured for the molecule COC(=O)N[C@H](C(=O)O)C(C)O[Si](C)(C)C(C)(C)C (stereo partly drawn) turned out to be > 100 µM (inactive)

The value of GI50 measured for the molecule CCOC(=O)C1=C(NC(C)(C)C)OC/C1=N\NC(=O)Cc1ccccc1 turned out to be > 100 µM (inactive)

The value of GI50 measured for the molecule NC(=O)NNCc1c(-c2ccccc2)no[n+]1[O-] turned out to be > 100 µM (inactive)

The value of GI50 measured for the molecule O=c1ccc(=O)c2c1c1[nH]c3ccccc3c1c1c(=O)c3ccccc3c(=O)c21 turned out to be > 10 µM (inactive)

The value of GI50 measured for the molecule N#CC(CCN1CCC(Nc2ccccc2)(c2nnnn2C2CCCCC2)CC1)(c1ccccc1)c1ccccc1 turned out to be > 100 µM (inactive)

###

- System: SNB-78
- Method Notes: NCI tumour cell line growth inhibition, 48 h
Activity calls are given as the source filed them. No stated cut-off is given here; in the data, active = GI50 up to about 1.1 µM and inactive = higher.
Test Readout: GI50

Compound | Result
Cc1ccc(C(O)(c2ccc(C)cc2)c2ccccn2)cc1 | > 100 µM (inactive)
CN(C)CC1CCCC/C1=N/O (stereo unspecified) | > 100 µM (inactive)
CN1C(=O)CSC1=S | > 100 µM (inactive)
Nc1c(S(=O)(=O)c2ccc(Cl)cc2)c2nc3ccccc3nc2n2ccnc12 | > 100 µM (inactive)
O=S1(=O)CSc2ccc3ccccc3c2-c2c1ccc1ccccc21 | > 100 µM (inactive)

Please turn your attention to the following entry.
The value of GI50 measured for the compound CP(C)C.[Ag][I] turned out to be 28.4 µM (inactive)

###

- Tested on: KM12
- Method Notes: NCI tumour cell line growth inhibition, 48 h
Activity calls are given as the source filed them. No stated cut-off is given here; in the data, active = GI50 up to about 1.1 µM and inactive = higher.
Result category, one only: y for active, n for inactive

Solved entries (count: 2):
Compound | Discrete Label
CN(O)C(=O)/C=C/c1ccc(OCc2cccc(Cl)c2)cc1 | n
CC(C)(C)CC(C)(C)c1ccc(OCCOCC[N+](C)(C)Cc2ccccc2)cc1 [BENZETHONIUM CHLORIDE] | n

Exercise: Kindly provide the recorded test outcome for the following compound: c1c[nH]c(CN2CCN(Cc3ncc[nH]3)CC2)n1
Key: n

Exercise: Kindly provide the recorded test outcome for the following compound: CCN(CC)CCC(=O)/C=C/c1ccccc1
Key: n

Exercise: Kindly provide the recorded test outcome for the following compound: Clc1sc(Cl)c2c1[C@H](Br)C[C@@H]2Cl
Key: n

Exercise: Kindly provide the recorded test outcome for the following compound: COC(=O)CC(C)(N[S+]([O-])c1ccc(C)cc1)c1ccccc1 (stereo not drawn)
Key: n

Exercise: Kindly provide the recorded test outcome for the following compound: O=C(/C=C/c1ccccc1)CCN1CCCCC1
Key: n

Exercise: Kindly provide the recorded test outcome for the following compound: CCCCCCCC1(N=[N+]=[N-])C(=O)c2ccccc2N(C)C1=O (stereo not drawn)
Key: n

Exercise: Kindly provide the recorded test outcome for the following compound: CCOC(=O)c1ccc(NCC#CCN2CCCCC2)cc1
Key: n

Exercise: Kindly provide the recorded test outcome for the following compound: COC1C2C=CC(C2)[C@H]1[N+](=O)[O-] (stereo partly drawn)
Key: n

Exercise: Kindly provide the recorded test outcome for the following compound: Cc1nc2ccccc2c(=O)n1CC(=O)O
Key: n

Exercise: Kindly provide the recorded test outcome for the following compound: CC(C)=CCC/C(C)=C/CC/C(C)=C/CSc1ccc(Cl)cc1C(=O)O
Key: n

Exercise: Kindly provide the recorded test outcome for the following compound: Cc1ccccc1C(O)(c1nccn1C)c1nccn1C
Key: n

Exercise: Kindly provide the recorded test outcome for the following compound: O=C(O)CCC1C(=O)C2CCN1CC2 (stereo not drawn)
Key: n

Exercise: Kindly provide the recorded test outcome for the following compound: O=C(O)CCC(NC(=O)c1ccc(Oc2nc3ccccc3nc2-c2ccccc2)cc1)C(=O)O (stereo not drawn)
Key: n

Exercise: Kindly provide the recorded test outcome for the following compound: CCCCCN(CCCCC)C(=O)[C@H](CCC(=O)OCc1ccccc1)NC(=O)c1cc2ccccc2[nH]1
Key: n

Attribution: ChEMBL document CHEMBL1201862
